Source listed as ChEMBL document CHEMBL3227987.

inhibition in vivo at 25 mg/kg values, listed per item
System: Rattus norvegicus
Assay: Antiinflammatory activity in Wistar rat assessed as inhibition of carrageenan-induced paw edema at 25 mg/kg, po pretreated for 30 mins followed by carrageenan challenge measured after 3 hrs relative to control
Type: functional
Could you give me the number in %? Just the number is fine.

For the molecule `Cc1c(N(C)C)c(=O)n(-c2ccccc2)n1C` , what inhibition in vivo at 25 mg/kg is on record? 11

Others:
For the molecule `Cn1ncc(N2CCOCC2)c(Cl)c1=O` , what inhibition in vivo at 25 mg/kg is on record? 15.2

For the molecule `CCOc1c(N(C)C)cnn(C)c1=O` , what inhibition in vivo at 25 mg/kg is on record? 27.5
